Biological target: Pyk2 (Homo sapiens, UniProt Q14289)
Sequence (Q14289 whole entry, species assumed): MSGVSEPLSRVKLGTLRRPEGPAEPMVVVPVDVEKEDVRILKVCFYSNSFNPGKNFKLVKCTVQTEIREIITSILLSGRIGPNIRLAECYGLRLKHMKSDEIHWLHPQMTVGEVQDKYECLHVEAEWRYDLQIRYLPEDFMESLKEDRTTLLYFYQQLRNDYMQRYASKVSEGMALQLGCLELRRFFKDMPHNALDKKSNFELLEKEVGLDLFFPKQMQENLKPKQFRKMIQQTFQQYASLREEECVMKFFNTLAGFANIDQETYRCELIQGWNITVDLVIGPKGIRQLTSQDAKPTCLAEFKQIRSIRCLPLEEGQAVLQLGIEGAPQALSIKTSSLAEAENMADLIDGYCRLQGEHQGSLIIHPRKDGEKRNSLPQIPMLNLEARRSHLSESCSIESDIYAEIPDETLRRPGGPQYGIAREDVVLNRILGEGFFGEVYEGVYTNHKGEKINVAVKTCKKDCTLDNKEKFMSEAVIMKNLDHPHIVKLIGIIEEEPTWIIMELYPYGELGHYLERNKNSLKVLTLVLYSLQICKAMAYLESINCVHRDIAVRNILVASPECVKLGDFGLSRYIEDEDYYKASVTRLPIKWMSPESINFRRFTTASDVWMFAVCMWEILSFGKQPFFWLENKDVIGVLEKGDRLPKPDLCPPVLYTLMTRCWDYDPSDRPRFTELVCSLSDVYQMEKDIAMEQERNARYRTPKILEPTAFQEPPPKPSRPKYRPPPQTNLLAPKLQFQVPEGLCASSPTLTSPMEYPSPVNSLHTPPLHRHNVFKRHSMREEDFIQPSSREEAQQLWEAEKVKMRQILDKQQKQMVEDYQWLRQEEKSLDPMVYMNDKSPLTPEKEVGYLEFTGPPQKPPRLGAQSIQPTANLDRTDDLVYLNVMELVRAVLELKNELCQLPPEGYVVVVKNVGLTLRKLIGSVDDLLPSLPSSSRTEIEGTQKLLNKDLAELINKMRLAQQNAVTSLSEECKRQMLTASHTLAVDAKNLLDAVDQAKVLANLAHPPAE
Test: Pyk2 assay; on Pyk2, outcome of primary assay: key: DNH = did not hit in primary assay
Assay type: biochemical
Conditions: primary assay
quantity_measured: Pyk2, outcome of primary assay

Reference set, count: 5
[[record]]
smiles_text = "Cc1cccc2c1CC/C2=C1/C(=O)Nc2ccccc21"
quantity_measured = "Pyk2, outcome of primary assay"
observed_measurement = "DNH"

[[record]]
smiles_text = "O=C1Nc2ccccc2/C1=C1\\CCc2cc(N3CCCCC3)ccc21"
quantity_measured = "Pyk2, outcome of primary assay"
observed_measurement = "DNH"

[[record]]
smiles_text = "COc1ccc2c(c1)/C(=C1\\C(=O)Nc3ccccc31)CC2"
quantity_measured = "Pyk2, outcome of primary assay"
observed_measurement = "DNH"

[[record]]
smiles_text = "COc1cc2c(cc1OC)/C(=C1\\C(=O)Nc3ccccc31)CC2"
quantity_measured = "Pyk2, outcome of primary assay"
observed_measurement = "DNH"

[[record]]
smiles_text = "O=C1Nc2ccccc2/C1=C1\\CCc2cc(Cl)ccc21"
quantity_measured = "Pyk2, outcome of primary assay"
observed_measurement = "DNH"


**Q:** Which Pyk2, outcome of primary assay value is on record for COc1ccc2c(c1)CC/C2=C1/C(=O)Nc2ccccc21 ?
**A:** DNH

----------
Target: human flk-1 (Homo sapiens)
Construct: expressed in transfected cells; host or cells: NIH fibroblast line (Flk-1/NIH cells, clone 3)
Sequence (P35968 20-1356): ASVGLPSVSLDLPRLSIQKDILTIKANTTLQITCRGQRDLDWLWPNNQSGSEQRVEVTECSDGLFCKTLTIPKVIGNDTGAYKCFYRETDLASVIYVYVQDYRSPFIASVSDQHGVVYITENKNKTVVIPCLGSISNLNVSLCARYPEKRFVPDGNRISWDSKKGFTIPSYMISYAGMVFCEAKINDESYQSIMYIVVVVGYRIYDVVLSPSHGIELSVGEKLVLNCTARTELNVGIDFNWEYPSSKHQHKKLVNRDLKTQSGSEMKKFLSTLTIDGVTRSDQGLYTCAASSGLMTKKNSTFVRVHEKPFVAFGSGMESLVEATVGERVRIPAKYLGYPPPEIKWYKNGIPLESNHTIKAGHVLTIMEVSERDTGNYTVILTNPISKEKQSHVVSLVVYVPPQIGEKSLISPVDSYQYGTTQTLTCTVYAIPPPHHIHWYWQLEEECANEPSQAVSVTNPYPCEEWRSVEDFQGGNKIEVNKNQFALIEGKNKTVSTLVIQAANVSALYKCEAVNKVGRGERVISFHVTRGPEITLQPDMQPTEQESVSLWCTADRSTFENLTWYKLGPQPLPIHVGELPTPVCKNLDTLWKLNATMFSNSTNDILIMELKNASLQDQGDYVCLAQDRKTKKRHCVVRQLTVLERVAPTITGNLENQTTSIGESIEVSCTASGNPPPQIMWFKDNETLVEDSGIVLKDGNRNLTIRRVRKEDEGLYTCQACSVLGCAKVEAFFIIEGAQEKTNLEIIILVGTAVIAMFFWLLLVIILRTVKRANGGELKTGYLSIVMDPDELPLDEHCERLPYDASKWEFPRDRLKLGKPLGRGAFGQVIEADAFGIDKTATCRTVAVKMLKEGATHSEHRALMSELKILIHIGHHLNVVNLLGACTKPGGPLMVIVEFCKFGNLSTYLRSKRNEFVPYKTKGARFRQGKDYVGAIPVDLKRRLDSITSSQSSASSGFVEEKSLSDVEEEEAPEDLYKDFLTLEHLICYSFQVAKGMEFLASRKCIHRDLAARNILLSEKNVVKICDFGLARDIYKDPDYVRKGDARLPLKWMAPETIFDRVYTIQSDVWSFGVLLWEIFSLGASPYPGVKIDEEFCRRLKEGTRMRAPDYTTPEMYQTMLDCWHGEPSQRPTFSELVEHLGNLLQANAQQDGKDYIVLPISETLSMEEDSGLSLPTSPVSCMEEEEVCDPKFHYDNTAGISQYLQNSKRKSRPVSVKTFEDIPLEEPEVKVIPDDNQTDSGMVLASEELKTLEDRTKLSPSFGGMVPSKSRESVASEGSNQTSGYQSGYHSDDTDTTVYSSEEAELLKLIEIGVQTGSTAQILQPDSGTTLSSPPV
Assay: Biochemical FLK-1 assay (bio Flk), autophosphorylation ELISA
Conditions: 50% inhibition of target PTK activity; read-out: bio Flk IC50
Output 1.0 for records whose IC50 is lower than 3 µM, 0.0 for records at or above 3 µM.

**Q:** Hello, is IC50 of the following molecule strictly smaller than 3 µM? CC1C/C(=C2/C(=O)Nc3ccccc32)c2ccccc21 (stereo not drawn)
**A:** 0.0

**Q:** Please check: IC50 for O=C1Nc2ccccc2/C1=C1\CCc2cc(Cl)ccc21 , strictly under 3 µM or not?
**A:** 0.0

**Q:** Is it true that IC50 reported for COc1ccc2c(c1)C(CC(=O)O)C/C2=C1/C(=O)Nc2ccccc21 (stereo not drawn) is less than 3 µM?
**A:** 1.0

**Q:** IC50 under 3 µM? Item: COc1cc2c(cc1OC)/C(=C1\C(=O)Nc3ccccc31)CC2
**A:** 0.0

**Q:** Is IC50 of O=C1Nc2ccccc2/C1=C1\CCc2ccccc21 [Compound 10, 3-Indan-1-ylidene-1,3-dihydroindol-2-one] strictly below 3 µM?
**A:** 1.0

**Q:** Answer whether the molecule CN(C)c1ccc2c(c1)CC/C2=C1/C(=O)Nc2ccccc21 has IC50 strictly less than 3 µM
**A:** 0.0

**Q:** State whether 3 µM exceeds IC50 recorded for O=C1Nc2ccccc2/C1=C1\CCc2cc(N3CCCCC3)ccc21 .
**A:** 0.0

**Q:** Please determine if Cc1cccc2c1CC/C2=C1/C(=O)Nc2ccccc21 is below 3 µM in terms of IC50.
**A:** 0.0

**Q:** Given O=C1Nc2ccccc2/C1=C1\CCc2cc(Br)ccc21 , is recorded IC50 strictly lower than 3 µM?
**A:** 1.0

----------
Target: Pyk2 (Homo sapiens, UniProt Q14289)
Experiment: Pyk2 assay
Type: biochemical
Details: 50% inhibition of target PTK activity; read-out: Pyk2 IC50
quantity_measured: IC50 (µM)
# unit: µM | format: bare number

**Q:** # query: IC50 of entry CN(C)c1ccc2c(c1)CC/C2=C1/C(=O)Nc2ccccc21 [Compound 5]
**A:** 79.3

**Q:** State the recorded IC50 for this entry: Nc1ccc2c(c1)CC/C2=C1/C(=O)Nc2ccccc21 [Compound 6]
**A:** 8.1

**Q:** What does the record list as IC50 for COc1ccc2c(c1)C(CC(=O)O)C/C2=C1/C(=O)Nc2ccccc21 (stereo not shown) [Compound 11] ?
**A:** 9.3

----------
Biological target: PDGFR (Homo sapiens, UniProt P09619)
Construct: expressed in transfected cells; host or cells: NIH 3T3
Sequence (P09619 33-1106, species assumed): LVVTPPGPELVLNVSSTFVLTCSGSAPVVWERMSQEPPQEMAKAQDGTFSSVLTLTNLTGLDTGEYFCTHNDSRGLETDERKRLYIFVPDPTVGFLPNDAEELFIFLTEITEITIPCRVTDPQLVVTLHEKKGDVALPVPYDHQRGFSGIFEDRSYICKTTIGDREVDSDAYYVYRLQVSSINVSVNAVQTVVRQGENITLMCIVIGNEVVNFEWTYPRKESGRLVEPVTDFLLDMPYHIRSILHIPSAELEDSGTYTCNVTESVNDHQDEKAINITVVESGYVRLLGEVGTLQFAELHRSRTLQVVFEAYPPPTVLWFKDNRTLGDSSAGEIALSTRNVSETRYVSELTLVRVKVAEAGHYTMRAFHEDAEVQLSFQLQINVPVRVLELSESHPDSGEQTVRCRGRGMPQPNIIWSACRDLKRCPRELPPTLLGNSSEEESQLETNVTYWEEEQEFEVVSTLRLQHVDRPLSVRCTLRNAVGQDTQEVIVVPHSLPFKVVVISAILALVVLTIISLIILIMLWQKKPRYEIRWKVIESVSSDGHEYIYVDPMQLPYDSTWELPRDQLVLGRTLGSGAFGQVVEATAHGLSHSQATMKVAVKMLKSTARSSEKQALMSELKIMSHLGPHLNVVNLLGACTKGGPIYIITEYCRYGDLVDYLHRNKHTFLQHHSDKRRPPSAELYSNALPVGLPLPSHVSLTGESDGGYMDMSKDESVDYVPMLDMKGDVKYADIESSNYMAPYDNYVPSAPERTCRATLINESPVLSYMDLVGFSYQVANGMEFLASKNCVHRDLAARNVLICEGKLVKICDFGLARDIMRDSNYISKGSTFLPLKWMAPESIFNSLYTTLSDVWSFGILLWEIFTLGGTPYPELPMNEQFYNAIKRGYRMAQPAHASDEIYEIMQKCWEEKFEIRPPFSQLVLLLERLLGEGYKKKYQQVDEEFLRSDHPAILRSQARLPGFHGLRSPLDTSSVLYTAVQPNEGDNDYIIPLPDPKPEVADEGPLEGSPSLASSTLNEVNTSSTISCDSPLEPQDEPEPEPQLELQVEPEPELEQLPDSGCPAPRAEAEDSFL
Experiment: Biochemical PDGFR assay (bio PDGFR), ELISA
Conditions: 50% inhibition of target PTK activity; read-out: bio PDGFR IC50
Please respond with reported IC50 for every item in the list.

**Q:** What IC50 value was documented for this molecule, O=C1Nc2ccccc2/C1=C1\CCc2cc(N3CCCCC3)ccc21 ?
**A:** > 100 µM

**Q:** Returns the measured IC50 for the input molecule. Input: O=C1Nc2ccccc2/C1=C1\CCc2cc(Cl)ccc21
**A:** > 100 µM

**Q:** Requested field: IC50. Item: O=C1Nc2ccccc2/C1=C1\CCc2cc(Br)ccc21
**A:** > 100 µM

**Q:** Any idea what its IC50 is? The molecule is COc1cc2c(cc1OC)/C(=C1\C(=O)Nc3ccccc31)CC2
**A:** > 25 µM

**Q:** Entry under review: CN(C)c1ccc2c(c1)CC/C2=C1/C(=O)Nc2ccccc21 . Reported IC50?
**A:** 50.8 µM

**Q:** Could you share which IC50 value was measured for CC1C/C(=C2/C(=O)Nc3ccccc32)c2ccccc21 (centres unmarked) ?
**A:** > 100 µM

**Q:** Tell me the measured IC50 of COc1ccc2c(c1)/C(=C1\C(=O)Nc3ccccc31)CC2 , please.
**A:** > 100 µM

**Q:** Dear colleague, I am looking for the recorded IC50 of the following molecule: O=C1Nc2ccccc2/C1=C1\CCc2ccccc21 [Compound 10, 3-Indan-1-ylidene-1,3-dihydroindol-2-one]
**A:** 63.7 µM

**Q:** I have this molecule here, COc1ccc2c(c1)C(CC(=O)O)C/C2=C1/C(=O)Nc2ccccc21 (centres unmarked) , and I need its recorded IC50.
**A:** 1.5 µM

**Q:** For the molecule Cc1cccc2c1CC/C2=C1/C(=O)Nc2ccccc21 , what IC50 is on record?
**A:** > 100 µM

**Q:** Can you share its IC50? I mean this molecule: Nc1ccc2c(c1)CC/C2=C1/C(=O)Nc2ccccc21
**A:** 5.5 µM

----------
Molecular target: PDGFR (Homo sapiens, UniProt P09619)
Construct: expressed in transfected cells; host or cells: NIH 3T3
Assay: Biochemical PDGFR assay (bio PDGFR), ELISA
Conditions: bio PDGFR IC50, 50% inhibition of target PTK activity
quantity_measured: IC50 (µM)
// units = µM; emit number, no label

**Q:** Entry COc1ccc2c(c1)CC/C2=C1/C(=O)Nc2ccccc21 [Compound 3] : reported IC50 = ?
**A:** 86.9

----------
Target: src protein kinase (Gallus gallus, UniProt P00523)
Construct: made in house; host or cells: Schizosaccharomyces pombe strain SP200
Assay: Biochemical src assay (bio SRC)
Settings: primary assay
quantity_measured: bio SRC, outcome of primary assay

[[record]]
molecule = "COc1ccc2c(c1)/C(=C1\\C(=O)Nc3ccccc31)CC2 [Compound 4]"
observed_measurement = "DNH"

[[record]]
molecule = "CC1C/C(=C2/C(=O)Nc3ccccc32)c2ccccc21 (stereo not shown) [Compound 1]"
observed_measurement = "DNH"

[[record]]
molecule = "Cc1cccc2c1CC/C2=C1/C(=O)Nc2ccccc21 [Compound 2]"
observed_measurement = "DNH"

[[record]]
molecule = "COc1ccc2c(c1)CC/C2=C1/C(=O)Nc2ccccc21 [Compound 3]"
observed_measurement = "DNH"


----------
Record form. Attribute: IC50. Fill in for each entry.
Target: src protein kinase (Gallus gallus, UniProt P00523)
Experiment: Biochemical src assay (bio SRC)
Settings: 50% inhibition of target PTK activity

**Q:** Missing value: IC50, src protein kinase (Gallus gallus, UniProt P00523), entry O=C1Nc2ccccc2/C1=C1\CCc2cc(Cl)ccc21 [Compound 7] . Fill in?
**A:** > 100 µM

**Q:** Observed IC50 on src protein kinase (Gallus gallus, UniProt P00523) for Nc1ccc2c(c1)CC/C2=C1/C(=O)Nc2ccccc21 [Compound 6] , please.
**A:** > 100 µM

**Q:** Under src protein kinase (Gallus gallus, UniProt P00523): IC50 value of CN(C)c1ccc2c(c1)CC/C2=C1/C(=O)Nc2ccccc21 [Compound 5] ?
**A:** > 100 µM

**Q:** Recorded IC50 for COc1cc2c(cc1OC)/C(=C1\C(=O)Nc3ccccc31)CC2 [Compound 12] with src protein kinase (Gallus gallus, UniProt P00523), please?
**A:** > 25 µM

**Q:** API: value(readout= IC50, system= src protein kinase (Gallus gallus, UniProt P00523), query= O=C1Nc2ccccc2/C1=C1\CCc2ccccc21 [Compound 10, 3-Indan-1-ylidene-1,3-dihydroindol-2-one] )
**A:** > 100 µM

----------
Molecular target: human flk-1 (Homo sapiens)
Construct: expressed in transfected cells; host or cells: NIH fibroblast line (Flk-1/NIH cells, clone 3)
Experiment: Biochemical FLK-1 assay (bio Flk), autophosphorylation ELISA
Experimental: This assay evaluates flk-1 autophosphorylation activity in vitro using ELISA. 1. Seed cell into growth medium and grow for 2-3 days to 90-100% confluency at 37° C. and 5% C)2. 2. Remove the medium and wash the cells twice with PBS. Lyse with HNTG lysis buffer. Collect all lysates and vortex mix them for 20-30 seconds. 3. […] 20. When the color in the positive control wells reaches an absorbance of about 0.35-0.4, stop the reaction with 100 μl of turbo-TMB stop solution.
quantity_measured: pIC50
In textbook form, pIC50 equals minus log to base ten of the concentration in mol/L.

**Q:** So what pIC50 did COc1ccc2c(c1)CC/C2=C1/C(=O)Nc2ccccc21 get with human flk-1 (Homo sapiens)?
**A:** 5.59
